Test system: Staphylococcus aureus 2012 (VISA)
Assay: MIC by broth microdilution, SA 2012
Format: cell-based
Conditions: Staphylococcus aureus 2012 (VISA); class symbols; read-out: MIC SA 2012
Description: Antibacterial activity in vitro is investigated by broth microdilution method in Meuller-Hinton broth as recommended by NCCLS. All strains tested are clinical isolates either sensitive or resistant to natural glycopeptides. MIC values were determined using the CLSI-recommended broth microdilution procedure (Clinical and Laboratory Standards Institute, Methods for Dilution Antimicrobial Susceptibility Tests for Bacteria That Grow Aerobically; Approved Standard-Seventh Edition.). […]
MEASURED_PARAMETER: MIC

// MIC lookup, key: CCCCCCc1ccc(S(=O)(=O)NCCCCCCNCc2c(O)cc3c(c2O)-c2cc(ccc2O)[C@H]2NC(=O)[C@@H]4NC(=O)[C@H](CC(N)=O)NC(=O)[C@H](NC(=O)[C@@H](CC(C)C)NC)[C@H](O)c5ccc(c(Cl)c5)Oc5cc4cc(c5O[C@@H]4O[C@H](CO)[C@@H](O)[C@H](O)[C@H]4O[C@H]4C[C@](C)(NC(N)=O)[C@H](OC(N)=O)[C@H](C)O4)Oc4ccc(cc4Cl)[C@@H](O)[C@H](NC2=O)C(=O)N[C@@H]3C(=O)O)cc1 (atropisomer, axis not shown) [Compound 370] 0.01 to 0.5 µg/mL
